Provide the reported growth inhibition of each item.
- assay procedure: NCI Yeast Anticancer Drug Screen. Data for the mlh1 strain (AID 171);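 also: 0% = growth of vehicle-treated control cultures of the same strain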
- experimental conditions: S. cerevisiae mlh1 strain growth inhibition; at 1.2 µM; hits give high values
Compounds without any hit were thinned out: in the full panel of roughly 79,000, 15% have a hit.
Give bare numbers, in %.

COc1cc(C2SCC(=O)N2c2ccc(-c3ccc(-n4c(-c5ccccc5)nc5ccccc5c4=O)cc3)cc2)ccc1O (stereo unspecified)
-2
COC(=O)C1(C)CCc2c(ccc3ccccc23)C1=O (stereo unspecified)
-2
CC1CC(C)(C)CC(OCCN2CCCCC2)(c2ccccc2)C1 (stereo unspecified)
1
Cc1cc(N(CCOS(C)(=O)=O)CCOS(C)(=O)=O)ccc1C=Nc1ccc(-c2csc(-c3ccccc3)n2)c(Cl)c1
-1
O=[N+]([O-])c1cccc2nc3ccccc3c(NCCCn3ccnc3[N+](=O)[O-])c12
17

Hi there! I need growth inhibition for each item below, if you can.
1. CCCCOC(=O)Nc1ccc(C)c(NC(=O)OCCCC)c1
2. Cc1cc(O)c(C(C)C)cc1C1(c2cc(C(C)C)c(O)cc2C)OC(=O)c2ccccc21

Response line:
[-8, 5]

Hi there! I need growth inhibition for each item below, if you can.
1. COC(C(O)CO)C(O)C(O)C(=O)NNc1ccccc1 (stereo unspecified)
2. CCCCCCCCCCCCCCCCCC(=O)NCCCN(C)C

Response line:
1: 2; 2: -21

---

- assay procedure: NCI Yeast Anticancer Drug Screen. Data for the bub3 strain (AID 167)
- experimental conditions: S. cerevisiae bub3 mutant strain, at 3.7 µM, hits give high values
The panel holds about 79,000 compounds, 15% with a hit somewhere; the sample as a whole holds those more often.
assay metric: growth inhibition (%)
One number for each entry, in %.

Worked examples, 5 compounds total:
CC(=O)Nc1ccc2c(c1)-c1ccccc1C2=O
-3
CCCC(O)C1CC(C(C)C)CCC1C (stereo unspecified)
-2
COc1ccc2[nH]cc([C@@H]3C4CCC(C4)[C@H]3NCc3cccc(CN[C@H]4C5CCC(C5)[C@@H]4c4c[nH]c5ccc(OC)cc45)c3)c2c1
-32
CN1C(=O)c2ccc3ccccc3c2C1=O
8
Cc1cc2c(cc1C)[n+]([O-])c(-c1nc3ccccc3s1)c(N)[n+]2[O-]
32

The record that follows has no growth inhibition shown yet.
Prompt line: Please look at this compound and report its growth inhibition: CCOC(=O)C1N=[N+](c2ccccc2)C(=O)/C1=C\n1c(=S)[nH]c2ccc([N+](=O)[O-])cc21 (stereo unspecified)
Response line: 1

---

- assay procedure: NCI Yeast Anticancer Drug Screen. Data for the rad50 strain (AID 155);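 also: 0% = growth of vehicle-only cultures of the same strain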
- experimental conditions: S. cerevisiae rad50 strain growth inhibition; at 3.7 µM; hits give high values
About 79,000 compounds went through this panel and 15% of them were active in at least one assay; those are over-represented in the sample as a whole.
Provide the reported growth inhibition of each item.
Give bare numbers, in %.

COc1cc(/C=C2\NC(=O)N(/C=C3\C(=O)Oc4ccccc4C3=O)C2=O)ccc1O
-17

Hi there! I need growth inhibition for each item below, if you can.
1. C[C@]12CC[C@H](O)CC1=CC[C@@H]1C2CC[C@]2(C)C(=O)NC(=O)CC12 (some centres not stated)
2. CC12C(=O)OC(=O)C(c3ccccc31)c1ccccc12
3. Cc1cc(C(C)(C)CC(C)(C)C)ccc1O
4. C[CH2][Sn]([CH2]C)([O]C(=O)C(N)Cc1ccccc1)[O]C(=O)C(N)Cc1ccccc1 (configuration not stated)
5. O=C(O)C1CC(c2ccccc2)=NN1c1ccccc1 (configuration not stated)
6. CC1CC(C)(C)CC(OCCN2CCCCC2)(c2ccccc2)C1 (configuration not stated)
7. COC(=O)Oc1cc(Cl)c(Cl)cc1Cl
8. S=C1SCN(C2CCCCC2)CN1C1CCCCC1

Response line:
1: -19; 2: -17; 3: 11; 4: 3; 5: -11; 6: 8; 7: 0; 8: -8

Hi there! I need growth inhibition for each item below, if you can.
1. CSc1nnc(SC)nn1
2. CCOC(=O)C(C(=O)OCC)=P(c1ccccc1)(c1ccccc1)c1ccccc1
3. CCc1c(Cl)c(C)cc(O)c1Cl

Response line:
1: -3; 2: 0; 3: -30
